# target-system: Cathepsin K (Homo sapiens (Human))
# assay-details: Cat K inhibitor screening kit, AFC substrate fluorescence
# Format: biochemical
# study-conditions: stated in text
# Protocol: Reagent information: Cat K inhibitor screening kit: batch number, 6L23K01500; supplier, BiVision. Drug preparation: compounds were dissolved in DMSO and prepared into 10 mM stock solutions. When in use, the stock solutions were prepared into the required concentrations by using a buffer. Cathepsin K (CTSK, EC 3.4.22.38) is a lysosomal cysteine protease, participates in osteoclastic bone remodeling and resorption, and can further degrade collagen, gelatin and elastin. […]
measured-attribute: IC50

Consider the following illustrative entries.
CN1CCN(c2ccc(CN(CC(C)(C)C)c3nccc(C#N)n3)cc2)CC1	< 100 nM
CN1CCN(c2ccc(-c3ccc(CN(CC4CCCCC4)c4nccc(C#N)n4)cc3)cc2)CC1	< 10 nM

Q: Look at this compound and give its reported IC50. "CN1CCN(c2ccc(-c3ccc(CN(CC(C)(C)C)c4nccc(C#N)n4)cc3)cc2)CC1"
A: < 10 nM

---

# target-system: Cathepsin K (Homo sapiens (Human), UniProt P43235)
# Sequence (P43235 115-329): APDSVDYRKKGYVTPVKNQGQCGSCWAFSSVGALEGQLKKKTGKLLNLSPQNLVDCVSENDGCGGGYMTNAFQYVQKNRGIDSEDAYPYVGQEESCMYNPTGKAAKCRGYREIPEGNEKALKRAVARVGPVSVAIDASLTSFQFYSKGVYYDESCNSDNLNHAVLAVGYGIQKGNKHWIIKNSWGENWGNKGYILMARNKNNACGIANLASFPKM
# assay-details: Cat K inhibitor screening kit, AFC substrate fluorescence
# Format: biochemical
# Experimental: Reagent information: Cat K inhibitor screening kit: batch number, 6L23K01500; supplier, BiVision. Drug preparation: compounds were dissolved in DMSO and prepared into 10 mM stock solutions. When in use, the stock solutions were prepared into the required concentrations by using a buffer. Cathepsin K (CTSK, EC 3.4.22.38) is a lysosomal cysteine protease, participates in osteoclastic bone remodeling and resorption, and can further degrade collagen, gelatin and elastin. […]
pIC50: −log10 of the molar value.
measured-attribute: pIC50

Q: GET /values?readout=pIC50&item= "CC(C)(C)CN(Cc1ccc(-c2cscn2)cc1)c1nccc(C#N)n1"
A: 6.30 to 7.00

Q: May I ask what pIC50 has been recorded for "O=C1COC[C@@H]1NC(=O)[C@@H]1CCCC[C@H]1C(=O)N1CCc2c([nH]c3c(F)cc(F)cc23)C1" ?
A: 7.00 to 8.00

Q: What value of measured pIC50 is listed for "CN1CCN(c2ccc(-c3ccc(CN(CC4CCCCC4)c4nccc(C#N)n4)cc3)cc2)CC1" ?
A: > 8.00

Q: Returns the measured pIC50 for the input compound. Input: "CS(=O)(=O)c1ccc(-c2ccc(CN(CC3CCCCC3)c3nccc(C#N)n3)cc2)cc1"
A: 6.30 to 7.00

---

Cat B/K ratio of inhibitory activities values for the compounds below.
# target-system: Cathepsin B (Homo sapiens (Human), UniProt P07858)
# assay-details: Screening of Cathepsin B, fluorescence
# Type: biochemical
# study-conditions: >> inhibition rate did not exceed 20% at test concentration; > greater than 35%; ≈ about 50%; < less than 50%

Illustrative cases are given below, each with its answer.
O=C1COC[C@@H]1NC(=O)[C@@H]1CCCC[C@H]1C(=O)N1CCc2c([nH]c3c(F)cccc23)C1 [Compound K21]	>710
CC(C)(C)CN(Cc1ccc(-c2ccc(S(C)(=O)=O)cc2)cc1)c1nccc(C#N)n1 [Compound K6]	>>3,300
CN1CCN(c2nc(-c3ccc(CN(CC(C)(C)C)c4nccc(C#N)n4)cc3)cs2)CC1 [Compound K18]	>>5,780
CN1CCN(c2ccc(-c3ccc(CN(CC4CCCCC4)c4nccc(C#N)n4)cc3)cc2)CC1 [Compound K15]	>15,000
CC(C)(F)C[C@H](N[C@@H](c1ccc(-c2ccc(S(C)(=O)=O)cc2)cc1)C(F)(F)F)C(=O)NC1(C#N)CC1 [Odanacatib, reference compound]	>590

Q: Tell me the measured Cat B/K ratio of inhibitory activities of CN1CCN(c2ccc(CN(CC(C)(C)C)c3nccc(C#N)n3)cc2)CC1 [Compound K1] , please.
A: >1,600

Q: I'd like to know its Cat B/K ratio of inhibitory activities. The compound in question is CC(C)(C)CN(Cc1ccc(-c2ccccc2)cc1)c1nccc(C#N)n1 [Compound K2]
A: >>2,100

Q: Give its Cat B/K ratio of inhibitory activities value. Item: CS(=O)(=O)c1ccc(-c2ccc(CN(CC3CCCCC3)c3nccc(C#N)n3)cc2)cc1 [Compound K16]
A: >>3,300

---

Reported IC50 values for a set of molecules
# target-system: Cathepsin K (Homo sapiens (Human), UniProt P43235)
# assay-details: Cat K inhibitor screening kit, AFC substrate fluorescence
# Type: biochemical

Some solved cases for reference:
O=C1COC[C@@H]1NC(=O)[C@@H]1CCCC[C@H]1C(=O)N1CCc2c([nH]c3c(F)cccc23)C1	10 to 100 nM
CC(C)(C)CN(Cc1ccc(-c2ccc(S(C)(=O)=O)cc2)cc1)c1nccc(C#N)n1	100 to 500 nM
CN1CCN(c2ccc(CN(CC(C)(C)C)c3nccc(C#N)n3)cc2)CC1	10 to 100 nM

From here, focus on the item given below.
Q: # IC50 lookup, item "CC(C)(C)CN(Cc1ccc(-c2ccc(C#N)s2)cc1)c1nccc(C#N)n1"
A: 100 to 500 nM

---

# target-system: Cathepsin K (Homo sapiens (Human), UniProt P43235)
# assay-details: Cat K inhibitor screening kit, AFC substrate fluorescence
# Type: biochemical
pIC50: −log10 of the molar value.
measured-attribute: pIC50

O=C1COCC1NC(=O)[C@@H]1CCCC[C@H]1C(=O)N1CCc2c([nH]c3c(F)cccc23)C1 (stereo partly drawn)	7.00 to 8.00
CC(C)(C)CN(Cc1ccc(-c2ccccc2)cc1)c1nccc(C#N)n1	6.30 to 7.00
Cc1ccc(-c2ccc(CN(CC(C)(C)C)c3nccc(C#N)n3)cc2)s1	6.30 to 7.00

Q: pIC50 for "CN1CCN(c2nc(-c3ccc(CN(CC(C)(C)C)c4nccc(C#N)n4)cc3)cs2)CC1" ?
A: 7.00 to 8.00

Q: // lookup pIC50 for "CN1CCN(c2ccc(-c3ccc(CN(CC(C)(C)C)c4nccc(C#N)n4)cc3)cc2)CC1"
A: > 8.00

Q: // query pIC50 value for entry O=C1COCC1NC(=O)[C@@H]1CCCC[C@H]1C(=O)N1CCc2[nH]c3ccccc3c2C1 (stereo partly drawn)
A: 7.00 to 8.00
